Assay: in vivo
Details: mouse
quantity_measured: LD50

>>> print(df.to_string())
                                   compound  endpoint_result
0  CC(C)(C)NCC(O)CO/N=C(\Cl)c1cccc(C(F)(F)F)c1 (stereo not shown)      ~1000 mg/kg
